Taken from patent US20250163057A1.

System: Cullin-3 (CUL3) neddylation
test name: AlphaLISA assay for Cullin-3 (CUL3) neddylation in TF 1 cells
Type: cell-based
experimental setup: Homo sapiens, TF-1, 3 h, 3 hours treatment
quantity measured: IC50

Recorded results for 2 compounds are shown here.
[
  {
    "query smiles": "CCN1C(=O)[C@@H](NC(=O)c2cccc3[nH]cnc23)[C@@H](C2CC2)c2c(C(=O)N3[C@H](C#N)C[C@H]4C[C@H]43)nn(C3CCOCC3)c21",
    "IC50": "> 1000 nM"
  },
  {
    "query smiles": "CCN1C(=O)[C@@H](NC(=O)c2cccc(C(F)(F)F)c2)[C@@H](c2ccc(F)cc2)c2c(C(=O)N[C@@H](C)C#N)nn(-c3ccccc3)c21",
    "IC50": "≤ 100 nM"
  }
]

From here, focus on the item given below.
q: Name the recorded IC50 for CCN1C(=O)[C@@H](NC(=O)c2cccc(C(F)(F)F)c2)[C@@H](c2ccc(F)cc2)c2c(CN3C(=O)CC[C@H]3C#N)nn(-c3ccccc3)c21 .
a: > 1000 nM

====

system: DCN1 (DCUND1) protein PONY domain (Homo sapiens (Human))
Sequence (Q96GG9 60-248): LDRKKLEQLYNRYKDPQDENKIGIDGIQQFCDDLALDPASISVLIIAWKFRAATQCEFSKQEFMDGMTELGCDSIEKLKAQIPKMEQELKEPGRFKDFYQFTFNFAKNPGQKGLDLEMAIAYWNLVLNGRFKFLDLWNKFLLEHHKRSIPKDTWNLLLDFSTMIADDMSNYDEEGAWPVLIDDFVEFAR
test name: TR-FRET assay, DCN1 binding with FAM-labeled probe
experimental setup: TR FRET IC50 1 hr (nM), 1 hr after treatment with compound
quantity measured: IC50

[
  {
    "compound": "CCN1C(=O)[C@H](NC(=O)c2cccc(C(F)(F)F)c2)[C@H](c2ccc(F)cc2)c2c(C(=O)N3CCC[C@H]3C#N)nn(-c3cccc(OCCN4CC5(COC5)C4)c3)c21",
    "IC50": "1000 to 3000 nM"
  },
  {
    "compound": "CCN1C(=O)[C@@H](NC(=O)c2cccc(C(F)(F)F)c2)[C@@H](c2ccc(F)cc2)c2c(C3(NC#N)CC3)nn(-c3ccccc3)c21 (racemic)",
    "IC50": "200 to 1000 nM"
  },
  {
    "compound": "CCN1C(=O)[C@@H](NC(=O)c2cccc(C(F)(F)F)c2)[C@@H](c2ccc(F)cc2)c2c(CN(C)C#N)nn(-c3ccccc3)c21",
    "IC50": "200 to 1000 nM"
  },
  {
    "compound": "CCN1C(=O)[C@@H](NC(=O)c2cccc(C(F)(F)F)c2)[C@@H](c2ccc(F)cc2)c2c(C(=O)N3CCC[C@H]3C#N)nn(-c3cccc(OCCCN(C)C4COC4)c3)c21",
    "IC50": "1000 to 3000 nM"
  }
]

q: Name the recorded IC50 for CCN1C(=O)[C@@H](NC(=O)c2cccc(C(F)(F)F)c2)[C@@H](C2CC2)c2c(C(=O)N3[C@H](C#N)C[C@H]4C[C@H]43)nn(C(C)(C)C)c21 (mixture of isomers) .
a: 1000 to 3000 nM

====

Tested on: Cullin-3 (CUL3) neddylation
test name: AlphaLISA assay for Cullin-3 (CUL3) neddylation in TF 1 cells
Format: cell-based
experimental setup: Homo sapiens, TF-1, 3 h, 3 hours treatment
pIC50: −log10 of the molar value.
Recorded pIC50 by entry

Recorded results for 2 compounds are shown here.
[
  {
    "compound": "C=C(CN1CCC(F)(F)C1)C(=O)NCc1nn(-c2ccccc2)c2c1[C@H](c1ccc(F)cc1)[C@@H](NC(=O)c1cccc(C(F)(F)F)c1)C(=O)N2CC (racemic)",
    "system": "Cullin-3 (CUL3) neddylation",
    "result": "≥ 7.00"
  },
  {
    "compound": "CCN1C(=O)[C@@H](NC(=O)c2cccc(C(F)(F)F)c2)[C@@H](c2ccc(F)cc2)c2c(C(=O)N3CS(=O)(=O)C[C@H]3C#N)nn(-c3ccccc3)c21",
    "system": "Cullin-3 (CUL3) neddylation",
    "result": "≥ 7.00"
  }
]

q: Name the recorded pIC50 for CCN1C(=O)[C@H](NC(=O)c2cccc(C(F)(F)F)c2)[C@@H](c2ccc(F)cc2)c2c(C3(NC#N)CC3)nn(-c3ccccc3)c21 (racemic) .
a: < 6.00

q: Lookup CCN1C(=O)[C@@H](NC(=O)c2cccc(C(F)(F)F)c2)[C@@H](c2ccc(F)cc2)c2c(CNC(=O)/C=C(\C)C(=O)OC)nn(-c3ccccc3)c21 (racemic)
a: < 6.00

q: Lookup CCN1C(=O)[C@@H](NC(=O)c2cccc(C(F)(F)F)c2)[C@@H](C2CC2)c2c(C(=O)N(C)C(C)C#N)nn(C3CC3)c21 (some centres unmarked)
a: ≥ 7.00

q: Lookup CCN1C(=O)[C@@H](NC(=O)c2cccc(C(F)(F)F)c2)[C@@H](c2ccc(F)cc2)c2c(C(=O)N(C)[C@@H](C#N)CCN3CCOCC3)nn(-c3ccccc3)c21
a: ≥ 7.00

q: Lookup CCN1C(=O)[C@@H](NC(=O)c2cccc(C(F)(F)F)c2)[C@@H](C2CCC2)c2c(C(=O)N3[C@H](C#N)C[C@H]4C[C@H]43)nn(C3CCOCC3)c21
a: ≥ 7.00

q: Lookup C=C(CN1CC2(CCOC2)C1)C(=O)NCc1nn(-c2ccccc2)c2c1[C@H](c1ccc(F)cc1)[C@H](NC(=O)c1cccc(C(F)(F)F)c1)C(=O)N2CC
a: ≥ 7.00

q: Lookup C=CC(=O)N[C@@H](C)c1nn(-c2ccccc2)c2c1[C@H](c1ccc(F)cc1)[C@H](NC(=O)c1cccc(C(F)(F)F)c1)C(=O)N2CC (mixture of isomers)
a: < 6.00

q: Lookup CCN1C(=O)[C@H](NC(=O)c2cccc(C(F)(F)F)c2)[C@H](c2ccc(F)cc2)c2c(C(=O)N(CC#N)C3CC3)nn(C3CCOCC3)c21
a: < 6.00
